format: physicochemical; details: CD at 220 nm, protein 7 μM, 50 mM Tris–HCl pH 7.5, 150 mM NaCl, 0.1% β‐mercaptoethanol
reported_property: melting temperature (Tm) (°C)
Express the result in °C but write the number alone.

Input line: Which melting temperature (Tm) reading was recorded for the molecule N245–370: truncated C‐terminal domain of the HCoV‐229E N protein, extended C‐terminal tail that includes residue 370 (protein, left off: His6, C-terminal, state not stated) QKPRWKRQPNDDVTSNVTQCFGPRDLDHNFGSAGVVANGVKAKGYPQFAELVPSTAAMLFDSHIVSKESGNTVVLTFTTRVTVPKDHPHLGKFLEELNAFTREMQQHPLLNPSALEFNPSQTSPAT ?
Output line: 36.2
